target: activated human MMP13 (human, UniProt P45452 104-471); assay: cell-based or functional assay
Recorded potency, human fluorogenic peptide assay values for a group of binders are listed next.
Answers without a unit are incomplete; give the number and then its unit.

Name the reported potency, human fluorogenic peptide assay value associated with the binder C010100690 (bispecific antibody, MMP13-Aggrecan bispecific Nanobody construct; also called 80A01-604F02SO) EVQLVESGGGLVQPGGSLRLSCAASGFTLAYYSIGWFRQAPGKEREGVSCISSGIDGSTYYADSVKGRFTISRDNAKNTMYLQMNNLKPEDTGVYYCAADPSHYYSEYDCGYYGMDYWGKGTLVTVSSGGGGSGGGGSGGGGSGGGGSGGGGSGGGGSGGGGSEVQLVESGGGLVQPGGSLRLSCAASGRTFSSYTMGWFRQAPGKEREFVAAISWSGGRTYYADSVKGRFTISRDNSKNTVYLQMNSLRPEDTAVYYCAAYRRRRASSNRGLWDYWGQGTLVTVSS
2.42 nM

---
Name the reported potency, human fluorogenic peptide assay value associated with the binder C010100724 (bispecific antibody, MMP13-Aggrecan bispecific Nanobody construct; also called 529C12SO-604F02SO-A) DVQLVESGGGLVQPGGSLRLSCAASGSIFSINAMGWYRQAPGKQRELVAAISSGGSTYYADSVKGRFTISRDNSKNTVYLQMNSLRPEDTAVYYCNAAVDASRGLPYELYYYWGQGTLVTVSSGGGGSGGGGSGGGGSGGGGSGGGGSGGGGSGGGGSEVQLVESGGGLVQPGGSLRLSCAASGRTFSSYTMGWFRQAPGKEREFVAAISWSGGRTYYADSVKGRFTISRDNSKNTVYLQMNSLRPEDTAVYYCAAYRRRRASSNRGLWDYWGQGTLVTVSSA
0.697 nM
